The reported measurements were obtained from the OligoGym collection.

SYSTEM: Tau
ASSAY_OVERVIEW: rat primary cortical neurons, FLIPR, 25 uM ASO
Bases are written 5' to 3'; sugars and linkages follow in the same order, as letters with counts (s phosphorothioate, o phosphodiester; PS: all linkages phosphorothioate). The collection does not say whether C is 5-methylated. l = locked nucleic acid (LNA); d = 2'-deoxy (DNA)
ENDPOINT_LABEL: calcium oscillation score

GCAACAATCCAACCACT (sugars l3 d12 l2, PS)    65.4 % of control
GTCATCGCTTCCAGTC (sugars l3 d10 l3, PS)    85.7 % of control
TTACACCATCCAAGTCA (sugars l4 d11 l2, PS)    75.5 % of control
CCCGTGGTCTGTCTTG (sugars l3 d10 l3, PS)    0 % of control

Q) // lookup calcium oscillation score for CTTTATTTCCAAATTCACT (sugars l3 d11 l1 d1 l3, PS)
A) 116 % of control

Q) I'd like to know its calcium oscillation score. The sequence in question is CAGCCTACTTTATTCCC (sugars l2 d13 l2, PS)
A) 79.2 % of control

Q) Requested read-out: calcium oscillation score. Entry: TCAGATTTTACTTCCACC (sugars l2 d13 l3, PS)
A) 57.5 % of control

----------
SYSTEM: Tau
ASSAY_OVERVIEW: rat primary cortical neurons, FLIPR, 25 uM ASO
Bases are written 5' to 3'; sugars and linkages follow in the same order, as letters with counts (s phosphorothioate, o phosphodiester; PS: all linkages phosphorothioate). The collection does not say whether C is 5-methylated. l = locked nucleic acid (LNA); d = 2'-deoxy (DNA)
ENDPOINT_LABEL: calcium oscillation score

In the examples that follow, each entry is paired with its recorded calcium oscillation score.
TTGATACCCTTCCTCA (sugars l3 d10 l3, PS)    14.3 % of control
TGATATTGTCCAGGGACCCA (sugars l3 d14 l3, PS)    0 % of control
TTCCTGGACCACCTTA (sugars l3 d10 l3, PS)    59.3 % of control

Q) Can you share its calcium oscillation score? I mean this sequence: CCACCATACTTGACTTC (sugars l3 d12 l2, PS)
A) 91.6 % of control

Q) What value of calcium oscillation score has been recorded for this entry: CAGCCATTTTCCATATA (sugars l3 d12 l2, PS)
A) 47.6 % of control

Q) If you can, please state the reported calcium oscillation score value of TATTTCCAAATTCACTTTTA (sugars lldldldddddddddldlll, PS) .
A) 129 % of control

----------
SYSTEM: Tau
ASSAY_OVERVIEW: rat primary cortical neurons, FLIPR, 25 uM ASO
Bases are written 5' to 3'; sugars and linkages follow in the same order, as letters with counts (s phosphorothioate, o phosphodiester; PS: all linkages phosphorothioate). The collection does not say whether C is 5-methylated. l = locked nucleic acid (LNA); d = 2'-deoxy (DNA)
ENDPOINT_LABEL: calcium oscillation score

CTTTATTTCCAAATTCACTT (sugars l2 d1 l2 d11 l4, PS)    0 % of control
CCTTTTCTACTCTACTCTC (sugars l3 d14 l2, PS)    55.7 % of control
CCAGATTCCCCAACTC (sugars l2 d12 l2, PS)    73.3 % of control
TCTGTCACTTACTACTCA (sugars l3 d13 l2, PS)    66 % of control
CCCAGAATTCTAACTA (sugars l4 d10 l2, PS)    63.5 % of control
CCTACTTTATTCCCTTA (sugars l2 d12 l3, PS)    95.9 % of control
TCCTAATCCTGTGCTT (sugars l3 d10 l3, PS)    23 % of control
CACTGGCGACTTGTACACGA (sugars l3 d14 l3, PS)    5.18 % of control

Q) Return reported calcium oscillation score; argument: CTAATCCTGTGCTTCA (sugars l3 d10 l3, PS)
A) 100 % of control

----------
Listed here are sequences together with their documented calcium oscillation score.
SYSTEM: Tau
ASSAY_OVERVIEW: rat primary cortical neurons, FLIPR, 25 uM ASO
Bases are written 5' to 3'; sugars and linkages follow in the same order, as letters with counts (s phosphorothioate, o phosphodiester; PS: all linkages phosphorothioate). The collection does not say whether C is 5-methylated. l = locked nucleic acid (LNA); d = 2'-deoxy (DNA)

Q) May I ask what calcium oscillation score has been recorded for CAACTCAAACACTAACTT (sugars l4 d10 l4, PS) ?
A) 64.5 % of control

Q) For the sequence GGGCGAGTCTACCATGTCGA (sugars l3 d14 l3, PS) , what calcium oscillation score is on record?
A) 66 % of control

Q) Which calcium oscillation score is listed for TCCTAATTCCCAAATTCCT (sugars l2 d15 l2, PS) ?
A) 57.4 % of control

Q) Please report the recorded calcium oscillation score for AACTTCTAGTTATACAGTTG (sugars l3 d14 l3, PS) .
A) 26.2 % of control

Q) Reported calcium oscillation score for CCCAGCGTGATCTTCCATCA (sugars l4 d11 l5, PS) : what is it?
A) 104 % of control

Q) GET /values?readout=calcium oscillation score&item= CTTACCATCCTATCTTC (sugars l3 d11 l3, PS)
A) 87 % of control

Q) Returns the measured calcium oscillation score for the input sequence. Input: CCAGCGTGATCTTCCATCAC (sugars l5 d11 l4, PS)
A) 91.6 % of control

Q) Item TAGTCACTCTGGTGA (sugars l3 d9 l3, PS) has what recorded calcium oscillation score?
A) 78.1 % of control

Q) Entry under review: TTAGCCCTAAAGTCCCAGGT (sugars l3 d14 l3, PS) . Reported calcium oscillation score?
A) 86.3 % of control

Q) Find the recorded calcium oscillation score belonging to ATGATTAATTACACCCC (sugars l3 d11 l3, PS) and report it.
A) 8.2 % of control

Q) Name the reported calcium oscillation score value associated with the sequence AAAATCCTTAATTTAACCAC (sugars l4 d12 l4, PS)
A) 64 % of control

----------
Measured calcium oscillation score by item
SYSTEM: Tau
ASSAY_OVERVIEW: rat primary cortical neurons, FLIPR, 25 uM ASO
Bases are written 5' to 3'; sugars and linkages follow in the same order, as letters with counts (s phosphorothioate, o phosphodiester; PS: all linkages phosphorothioate). The collection does not say whether C is 5-methylated. l = locked nucleic acid (LNA); d = 2'-deoxy (DNA)

Record excerpt, results attached:
TTTTCTTGTTCTAACCCC (sugars l2 d13 l3, PS)    50.1 % of control
ACAGCCATTTTCCATAT (sugars l3 d11 l3, PS)    59.3 % of control
GGCGGTGACTGCGAG (sugars l3 d9 l3, PS)    51.5 % of control
ACAAACAATCCATTTATAT (sugars l4 d11 l4, PS)    46.2 % of control
CCCATCAATTTGGAAAGATG (sugars l3 d14 l3, PS)    58.1 % of control

Q) Hello, I am looking for reported calcium oscillation score with Tau for ATGATGGATGTTGCCT (sugars l3 d10 l3, PS) . Could you help?
A) 0 % of control

Q) Request - read-out calcium oscillation score | tested on Tau | sequence TTTTTTAACTCCCAACTC (sugars l4 d10 l4, PS)
A) 95.2 % of control

Q) Notebook entry, Tau assay: calcium oscillation score of CCTCTCCTTTAAGAAAA (sugars l4 d10 l3, PS) = ?
A) 74.9 % of control

Q) Query for Tau: what calcium oscillation score does the record show for CACCCACTTTCCTAATTCC (sugars l1 d16 l2, PS) ?
A) 60.9 % of control

Q) Form: Entry = CCATCCTATCTTCTAG (sugars l3 d10 l3, PS) | System = Tau | calcium oscillation score = ____
A) 44.3 % of control

----------
SYSTEM: Tau
ASSAY_OVERVIEW: rat primary cortical neurons, FLIPR, 25 uM ASO
Bases are written 5' to 3'; sugars and linkages follow in the same order, as letters with counts (s phosphorothioate, o phosphodiester; PS: all linkages phosphorothioate). The collection does not say whether C is 5-methylated. l = locked nucleic acid (LNA); d = 2'-deoxy (DNA)
Each record here notes measured calcium oscillation score.

// known answers, use as guide
ATCAGTCTTATCTCCCA (sugars l3 d12 l2, PS)    49.2 % of control
CTTTGAACACCCCATCTA (sugars l2 d14 l2, PS)    45.6 % of control
CCTCCTTAACCATTAG (sugars l2 d11 l3, PS)    54.5 % of control
TTAACTCATCAACACCTTTT (sugars l4 d13 l3, PS)    59 % of control
TCCTTCTAAGTACAAT (sugars l4 d8 l4, PS)    54.1 % of control

Q) Form field: reported calcium oscillation score of TTATTTACACTGTCCTT (sugars l3 d10 l4, PS)
A) 54.1 % of control

Q) Name the recorded calcium oscillation score for ACTTTATTTCCAAATTCACTTTTAC (sugars llddldddddddddddddddllddl, PS) .
A) 17.7 % of control

Q) GET /values?readout=calcium oscillation score&item= CCACCTCCTAGAACACA (sugars l2 d13 l2, PS)
A) 50.9 % of control
